Assay: Rat PK test
Type: in vivo
Conditions: plasma, iv; male Sprague-Dawley rat, caudal vein administration, 0.5 mg/kg; administration amount divided by AUC0-∞; read-out: CLp (converted)
Reported Endpoint: clearance (mL/min/kg)
Give bare numbers, in mL/min/kg.

Please review the entries below; each comes with its answer.
CC(NC(=O)C1(C)CCN(C(=O)c2ccc(N3CCCC3)cc2C(F)(F)F)c2ccccc2C1)C(N)=O (single isomer, unassigned) [Example 90] :: 13.6
Cc1ccn(-c2ccc(C(=O)N3CCC(C)(C(=O)NC(C)CO)Cc4ccccc43)c(Cl)c2)n1 (single isomer, unassigned) [Example 72] :: 19.3
Cc1ccn(-c2ccc(C(=O)N3CCC(C)(C(=O)NC(C)CO)Cc4ccccc43)c(C(F)(F)F)c2)n1 (single isomer, unassigned) [Example 89] :: 22.5

Turning to the following compound.
Which clearance is reported for this compound? C[C@@H]1CN(C(=O)c2ccc(-n3cccn3)cc2Cl)c2ccccc2CN1C(=O)NCCO [comparative compound 1, reference compound]
47.8
